System: rear paw which has received the carrageenin
Test description: Anti-inflammatory activity: carrageenin-induced rear paw swelling, oral administration
Assay type: in vivo, rats (male SPF, strain OFA)
Applied conditions: Rattus norvegicus; 4 mg/kg oral administration; read-out: % of inhibition (reduction of swelling)
Hi, to clarify the labels: class 1 covers inhibition in vivo at 4 mg/kg from 5% upward, class 0 covers anything below 5%.

| Compound | Class name |
| --- | --- |
| CCC1Cc2cc(CC(=O)OCCN(C)C)sc2C1 (stereo not drawn) | class 0 |
| CC(C(=O)O)c1cc2c(s1)CC(C(C)C)C2 (stereo not drawn) | class 0 |
| CCC1Cc2cc(C(C)C(=O)OCCN(C)C)sc2C1 (stereo not drawn) | class 0 |
| CC(C)C1Cc2cc(CC(=O)OCCN(C)C)sc2C1 (stereo not drawn) | class 1 |
| CCC1Cc2cc(CC(=O)OCCN3CCOCC3)sc2C1 (stereo not drawn) | class 0 |

###

Test system: pain reactions (abdominal contortions)
Test description: Analgesic activity: phenylbenzoquinone-induced pain reactions, oral administration
Format: in vivo, mice (male, SPF1, strain OF1)
Applied conditions: Mus musculus; 64 mg/kg oral administration

| Compound | inhibition in vivo at 64 mg/kg, % |
| --- | --- |
| CCC1Cc2cc(CC(=O)OCCN3CCOCC3)sc2C1 (centres unmarked) [Example 32] | 53 |
| CC(C)C1Cc2cc(CC(=O)OCCN3CCOCC3)sc2C1 (centres unmarked) [Example 39] | 12 |
| CC(C(=O)O)c1cc2c(s1)CC(C(C)C)C2 (centres unmarked) [24 & 28] | 96 |
| CCC1Cc2cc(CC(=O)O)sc2C1 (centres unmarked) [Example 17] | 63 |
| CCC1Cc2cc(C(C)C(=O)OCCN3CCOCC3)sc2C1 (centres unmarked) [Example 30] | 93 |
